# melting point values compiled below
measured.endpoint: melting point

CCN(C(=O)n1nc2c(Cl)c(Cl)c(Cl)c(Cl)c2n1)c1ccccc1 = 157 °C
Cc1cc(C)nc(N(N=O)c2ccccc2)n1 = 117 to 121 °C
COC(=O)/C=C/[C@H]1[C@@H](C(=O)OCc2cnc(Oc3ccccc3)s2)C1(C)C = 62 °C
COC(=O)c1cc([N+](=O)[O-])ccc1ON=C(C)c1ccccc1 = 108 to 110 °C
COc1ccc(S(=O)(=O)N(CCCN(C)C)c2ccc(Cl)cc2Cc2c(F)cccc2F)cc1OC = 134 °C
COc1cc2c(cc1O)c(-c1cc3cccnc3n1S(=O)(=O)c1ccc(C)cc1)cn2C = 211 to 214 °C
Cn1c(C(F)(F)F)cc(=O)n(-c2c(F)cc(Br)c(O)c2N)c1=O = 98 to 100 °C
O=C(O)CC1CCCc2c1n(Cc1ccc(Cl)cc1Cl)c1c(F)cc(F)cc21 (stereo not given) = 160 to 161 °C
Cc1c(C(=O)CBr)ccn1S(=O)(=O)c1ccccc1 = 108 to 110 °C
CSc1c(C(=O)O)ccc(F)c1F = 149 to 150 °C

* * *

# melting point values compiled below
measured.endpoint: melting point

Cn1nc(-c2cccc(C(F)(F)F)c2)cc1C(=O)O = 198 to 199 °C
Clc1ccc(N=Cc2ccc(-c3noc4ccccc34)cc2)cc1 = 164 to 165 °C
CC(C)(O)c1ccc(S(N)(=O)=O)o1 = 116 to 118 °C
CC(C)c1cccc(C(C)C)c1NC(=O)C1CCCC(Cc2ccccn2)(Cc2ccccn2)C1=O (stereo not given) = 70 to 73 °C
CC(C)(C)c1nc(N)nc(C(C)(C)C)c1O = 92 to 93 °C
O=[N+]([O-])c1ccc(N2CCN(c3ccc(O)cc3)CC2)cc1 = 260 °C
CCOC(=O)c1ccc(C(=O)Nc2ccc3c(c2)N(C)C(=O)C(C)(C)C(=O)N3C)cc1 = > 270 °C
COc1cc2ncnc(Nc3cc(Cl)cc(N=[N+]=[N-])c3)c2cc1OC = 205 to 206 °C
COc1ccccc1NC(=O)c1sccc1S(=O)(=O)Nc1onc(C)c1Br = 74 to 80 °C
CCOC(=O)CC(=O)CC(c1ccccc1)c1ccc(OC)c(OC2CCCC2)c1 (stereo not given) = 56 to 58 °C
O=C(O)C1Cc2c(c(Cl)cc3c(-c4ccc(F)cc4)noc23)O1 (stereo not given) = 215 to 218 °C
CN(C)CCCN1C(=O)Nc2ccccc2C1C1CCCCC1 (stereo not given) = 124 to 125 °C
O=C(Nc1cccc(-c2ccnc3c(C(=O)c4ccco4)cnn23)c1)c1ccccc1 = 220 to 222 °C
C1=C(c2c[nH]c3ccccc23)CN(Cc2ccccc2)CC1 = 105 to 107 °C
COc1ccc(C(=O)N2CCN(c3cc4ccccc4cn3)CC2)cc1 = 156 to 159 °C
CC=CC(=O)C1C(C)CCCC1(C)C (stereo not given) = 8 to 9 °C
CON=C(C)CN1C(=O)c2ccccc2C1=O = 114 to 131 °C
COc1ccc(Nc2cccc3c2C(=O)N(C2CCC(=O)NC2=O)C3=O)cc1OC (stereo not given) = 215 to 217 °C
COc1cc(Nc2nccc(-c3ccc(NC(=O)OC(C)(C)C)cc3)n2)cc(OC)c1OC = 158 to 159 °C
Nc1c2c(=O)n3c(nc2nn1CC(F)(F)F)SCC3 = 285 to 288 °C
Cc1cc(C(=O)N2Cc3cccn3Cc3ccccc32)ccc1C1=CCCCC1C(C)(C)C (stereo not given) = 127 to 129 °C
CC(=NNc1ccc(C2=NNC(=O)CC2C)cc1)c1cc(O)ccc1O (stereo not given) = 279 to 284 °C
COc1ccc(C2=NN(C3CCOCC3)C(=O)[C@H]3CC=CC[C@@H]23)cc1OC1CCCC1 (relative stereo) = 116 to 117 °C
Fc1ccc(NCc2ccc(NCc3ccccc3)nc2)nc1 = 166 to 168 °C
CCc1c(Oc2cc(C)cc(C)c2)n(CC2CC=CC2)c(=O)[nH]c1=O = 179 to 180 °C
Nc1cccc2c1CN(C1CCC(=O)NC1=O)C2=O (stereo not given) = 250 to 252 °C
O=C(CCN1CCN(c2ncc(F)cn2)CC1)Cc1ccc(F)c2ccccc12 = 119 to 120 °C
O=Cc1ccc(OCCN2OCc3ccccc3C2=O)cc1 = 102 °C
C=CCOC(=O)COC(=O)c1c(Br)c(Br)c(C(=O)OCC(=O)OCC=C)c(Br)c1Br = 146 to 148 °C
O=C1CCCc2ccc(Nc3ncc(Cl)c(Nc4ccccc4S(=O)(=O)N4CCCC4)n3)cc2N1 = 249 to 251 °C
O=c1[nH]c2cc(C(F)(F)F)c(Cl)c(Cl)c2[nH]c1=O = > 250 °C
CCC1CCC(Oc2cc(F)cc(C(=O)Nc3ccc(OCc4ccncc4)c4ccccc34)c2)CC1 (stereo not given) = 93 to 95 °C
CC1N=C(c2ccccc2F)c2cc(C#N)ccc2NC1=O (stereo not given) = 216 °C
CCOC(=O)C(C#N)=C1CCN(c2ccc(N3C[C@H](CNC(C)=S)OC3=O)cc2F)CC1 = 182 to 185 °C
c1ccc2c(c1)-c1ccccc1C2CN1CCCCC1 = 118 to 119 °C
CC(C)n1nc(-c2sc(NC(=O)Cc3ccccc3)nc2-c2ccccc2)ccc1=O = 250 to 252 °C
Cc1nc2c(c3c1[nH]c1cc(F)ccc13)C(=O)CC(C)(C)C2 = 244 to 246 °C
COc1ccc(-c2sc3c(c2C)c(=O)c(CO)cn3Cc2ccccc2F)cc1 = 159 to 160 °C
O=C(O)COc1ccccc1-c1ccc(Cl)c(C(=O)NCC23CC4CC(CC(C4)C2)C3)c1 = 208 to 210 °C
CCCc1c(C(=O)N(CC)CC)ccc(OC)c1OC = 65 to 67 °C
